Below, each entry is listed alongside its reported % Inhibition at 10^−6M.
Target: Farnesyltransferase (FTase) (Bos taurus, UniProt P29702+P49355)
Construct: precipitation from a beef brain homogenate; from tissue; host or cells: bovine brain
Sequence (P49355 whole entry, one chain of several): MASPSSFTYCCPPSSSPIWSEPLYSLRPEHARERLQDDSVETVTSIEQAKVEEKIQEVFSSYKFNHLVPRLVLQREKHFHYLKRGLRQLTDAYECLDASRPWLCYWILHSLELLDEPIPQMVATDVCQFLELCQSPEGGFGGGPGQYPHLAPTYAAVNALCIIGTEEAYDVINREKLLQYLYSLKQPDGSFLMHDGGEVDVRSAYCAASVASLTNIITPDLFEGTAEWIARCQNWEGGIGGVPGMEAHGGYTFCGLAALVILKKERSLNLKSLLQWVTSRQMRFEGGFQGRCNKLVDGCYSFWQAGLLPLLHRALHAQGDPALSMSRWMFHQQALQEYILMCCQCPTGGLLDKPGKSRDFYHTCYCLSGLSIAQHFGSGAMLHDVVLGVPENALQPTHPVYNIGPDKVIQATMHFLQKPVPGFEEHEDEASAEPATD
Assay: Farnesyltransferase inhibition (scintillation proximity assay, [3H]-FPP / biotin-K-ras peptide)
Format: biochemical, bovine
Just so you know, I need the unit written after the number.

compound	value-observed
Cc1ccccc1-c1cc(C(OCc2cccc(C(F)(F)F)c2)c2cncn2C)ccc1C#N.Cl (centres unmarked)	97%
Cc1ccccc1-c1cc(C(OCc2noc(-c3cccc(C(F)(F)F)c3)n2)c2cncn2C)ccc1C#N.Cl (centres unmarked)	70%
Cc1ccccc1-c1cc(C(OCc2c(C)ccc3ccccc23)c2cncn2C)ccc1C#N.Cl (centres unmarked)	90%
Cc1ccc(COC(c2ccc(C#N)c(-c3ccccc3C)c2)c2cncn2C)cc1.Cl (centres unmarked)	93%
Cc1ccccc1-c1cc(C(OCc2cccc(OC(F)(F)F)c2)c2cncn2C)ccc1C#N.Cl (centres unmarked)	97%

Data request: Return reported % Inhibition at 10^−6M; argument: COc1cc(COC(c2ccc(C#N)c(-c3ccccc3C)c2)c2cncn2C)cc(OC)c1OC.Cl (centres unmarked)
Data returned: 95%

Data request: Return reported % Inhibition at 10^−6M; argument: Cc1ccccc1COC(c1ccc(C#N)c(-c2ccccc2C)c1)c1cncn1C.Cl (centres unmarked)
Data returned: 94%

Data request: Return reported % Inhibition at 10^−6M; argument: Cc1ccccc1-c1cc(C(c2cncn2C)N2CCN(c3cccc(OC(F)(F)F)c3)C(=O)C2)ccc1C#N.Cl.Cl (centres unmarked)
Data returned: 100%
